The reported numbers originate from the supplement of paper PMC9112550.

Hi there, I'd appreciate the recorded shrunken log2 fold change for every entry that follows.
System: Escherichia coli TOP10;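 also: peptides expressed intracellularly from a pBAD plasmid library in pooled LB shake-flask culture, induced with 0.3% L-arabinose, DNA abundance read by NGS, three biological replicates, DESeq2 with apeglm shrinkage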
Test Name: shrunken log2 fold change of peptide-encoding DNA abundance (4.5 h post-induction vs induction); higher = less antimicrobial activity (less host growth inhibition)
Condition Parameters: time post-induction: 4.5 h; library: site-saturation at positions 5, 18, 19, 20

May I ask what shrunken log2 fold change has been recorded for RRIRKRPPRLPRPRPRPFQYPRP ?
-0.284

May I ask what shrunken log2 fold change has been recorded for RRIRDRPPRLPRPRPRPMEEPRP ?
-0.00277

May I ask what shrunken log2 fold change has been recorded for RRIRTRPPRLPRPRPRPHVPPRP ?
-0.374

May I ask what shrunken log2 fold change has been recorded for RRIRSRPPRLPRPRPRPLALPRP ?
-0.107

May I ask what shrunken log2 fold change has been recorded for RRIRDRPPRLPRPRPRPYGTPRP ?
-0.234

May I ask what shrunken log2 fold change has been recorded for RRIRKRPPRLPRPRPRPGQTPRP ?
0.611

May I ask what shrunken log2 fold change has been recorded for RRIRWRPPRLPRPRPRPHEGPRP ?
-0.102

May I ask what shrunken log2 fold change has been recorded for RRIRGRPPRLPRPRPRPTKYPRP ?
0.189

May I ask what shrunken log2 fold change has been recorded for RRIRQRPPRLPRPRPRPNEIPRP ?
-0.217
